Every entry's value here was drawn from paper PMC11613190.

# Tested system: T2R14 (Homo sapiens, UniProt Q9NYV8)
# Sequence (Q9NYV8 1-317): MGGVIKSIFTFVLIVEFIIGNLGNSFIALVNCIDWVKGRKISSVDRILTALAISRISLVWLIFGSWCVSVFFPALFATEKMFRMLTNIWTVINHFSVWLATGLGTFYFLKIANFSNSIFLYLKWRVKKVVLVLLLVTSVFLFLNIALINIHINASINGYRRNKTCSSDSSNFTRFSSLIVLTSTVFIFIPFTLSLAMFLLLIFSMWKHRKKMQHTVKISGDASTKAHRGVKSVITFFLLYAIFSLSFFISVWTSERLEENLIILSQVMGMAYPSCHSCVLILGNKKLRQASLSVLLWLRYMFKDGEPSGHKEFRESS
# Experiment description: Intracellular calcium mobilization in human bronchial epithelial
# Assay type: cell-based
# Experimental context: EC50, Ca2+ mobilization, all the cell types investigated (NuLi-1, CuFi-1, BD, BCF)
Metric: EC50

May I ask what EC50 has been recorded for CN(C)CCOC(c1ccccc1)c1ccccc1 [DPH, diphenhydramine] ?
~500 µM

----------
# Tested system: UniProtKB Q9NYV8
# Sequence (Q9NYV8 1-317): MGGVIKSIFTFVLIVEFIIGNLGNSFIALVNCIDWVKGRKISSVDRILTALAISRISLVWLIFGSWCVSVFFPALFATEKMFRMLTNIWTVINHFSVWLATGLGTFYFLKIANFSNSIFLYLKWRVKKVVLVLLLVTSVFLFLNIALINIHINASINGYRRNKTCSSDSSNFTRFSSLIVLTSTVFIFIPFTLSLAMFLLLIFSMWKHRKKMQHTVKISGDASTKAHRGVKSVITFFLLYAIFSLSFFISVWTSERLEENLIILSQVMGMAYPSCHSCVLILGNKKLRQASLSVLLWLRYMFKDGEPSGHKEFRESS
# Experiment description: Intracellular calcium mobilization in HEK293T cells overexpressing T2R14
# Format: cell-based
# Experimental context: read-out: EC50, intracellular calcium mobilization; HEK 293T cells overexpressing T2R14
pEC50: −log10 of the molar value.
Metric: pEC50

May I ask what pEC50 has been recorded for CCCCCCCCCC(=O)CC(=O)N[C@H]1CCOC1=O ?
~4.22

----------
Catalogue of pEC50 values
# Tested system: T2R14 (Homo sapiens)
# Experiment description: Intracellular calcium mobilization in human bronchial epithelial
# Assay type: cell-based
# Experimental context: EC50, intracellular calcium mobilization, both BCF and BD cells
pEC50: −log10 of the molar value.

{"columns": ["Compound smiles", "Tested system", "pEC50"],
 "data": [
  ["CC(C)=CCC/C(C)=C/CC/C(C)=C/CO", "T2R14 (Homo sapiens)", "~3.92"]
]}

Lab note: need pEC50 for OCCc1ccc(O)cc1 on T2R14 (Homo sapiens), anyone have it?
~4.00
